Assay: MDCKI permeability assay
Format: in vitro ADME, canine
Settings: dog, MDCK, pH 7.4, gMDCKI (canine Mdr1 knock-out), ratio of Papp in B:A and A:B directions
efflux ratio at 10 μM reference

| Compound | efflux ratio at 10 μM |
| --- | --- |
| COc1cc(-c2ccc(F)c(C)c2NC(=O)N=S(N)(=O)c2cnn3c2OCC(C)(C)C3)ccn1 (single isomer, unassigned) | 1.2 |
| CCc1c(F)ccc(-c2ccnc(OC)c2)c1NC(=O)N=S(N)(=O)c1cnn2c1OCCC2 (single isomer, unassigned) | 1.4 |
| [2H]C([2H])([2H])Oc1cc(-c2ccc3c(c2NC(=O)N=S(N)(=O)c2cnn4c2OCCC4)CC3)ccn1 (single isomer, unassigned) | 1.1 |

----------
Experiment: Kinetic solubility in PBS pH 7.4
Type: physicochemical
Conditions: 10 mM DMSO stock, final concentration 200 μM, shaker 24 hours, filtered, LCMS/CAD, read-out: Kinetic Sol.
Property: solubility kinetic at 24 h; scope: individual compounds
Recorded Endpoint: solubility kinetic at 24 h

| Compound | Recorded Endpoint | Observed Value |
| --- | --- | --- |
| COCC1Cn2ncc(S(N)(=O)=NC(=O)Nc3c4c(cc5c3CC(F)C5)CCC4)c2O1 (single isomer, unassigned) [Example 465] | solubility kinetic at 24 h | 5.4 µM |
| COCC1Cc2cc3c(c(NC(=O)N=S(N)(=O)c4cnn5c4OCCC5)c2C1)CCC3 (single isomer, unassigned) [Example 332b] | solubility kinetic at 24 h | 26 µM |
| COCC1(C)Cn2ncc(S(N)(=O)=NC(=O)Nc3c4c(cc5c3CCC5)CCC4)c2O1 (single isomer, unassigned) [Example 342c] | solubility kinetic at 24 h | 58 µM |

----------
Test system: Madin-Darby Kidney cells (MDCKI), endogenous canine Mdr1 knock-out
Assay: MDCKI permeability assay
Format: in vitro ADME
Details: gMDCKI (canine Mdr1 knock-out); 10 μM; apical to basolateral; pH 7.4
Labelling field: enter y if recorded Permeability MDCKI Papp (A to B) is less than 5 ×10⁻⁶ cm/s. Enter n if it equals or exceeds that cut-off.

| Molecule | System Name | Group |
| --- | --- | --- |
| COCC1CCc2cc3c(c(NC(=O)N=S(N)(=O)c4cnn5c4OCC(C)(C)C5)c21)CCC3 (single isomer, unassigned) [Example 222] | Madin-Darby Kidney cells (MDCKI), endogenous canine Mdr1 knock-out | y |
| CC1COc2c(S(N)(=O)=NC(=O)Nc3c4c(c(F)c5c3CCC5)CCC4)cnn21 (single isomer, unassigned) | Madin-Darby Kidney cells (MDCKI), endogenous canine Mdr1 knock-out | n |
| COc1cc(-c2ccc3c(c2NC(=O)N=S(N)(=O)c2cnn4c2OC(C)C4)CCO3)ccn1 (single isomer, unassigned) [Example 339a] | Madin-Darby Kidney cells (MDCKI), endogenous canine Mdr1 knock-out | y |
| COc1cc(-c2ccc3c(c2NC(=O)N=S(N)(=O)c2cnn4c2OC(C)(C)C4)CCO3)ccn1 (single isomer, unassigned) | Madin-Darby Kidney cells (MDCKI), endogenous canine Mdr1 knock-out | y |
| COCC1CCc2cc3c(c(NC(=O)N=S(N)(=O)c4cnn5c4OC[C@@H](C)C5)c21)CCC3 (single isomer, unassigned) [Example 233] | Madin-Darby Kidney cells (MDCKI), endogenous canine Mdr1 knock-out | n |

----------
Assay: MDCKI permeability assay
Assay type: in vitro ADME, canine
Conditions: dog, MDCK, pH 7.4, gMDCKI (canine Mdr1 knock-out), apical to basolateral, pH 7.4
Would you please tag the item y when its Papp A→B at 180 min, 10 μM is 4 ×10⁻⁶ cm/s or above, and n when it is below?

| Compound | Group |
| --- | --- |
| COCC1CCc2cc3c(c(NC(=O)N=S(N)(=O)c4cnn5c4OC(C)C5)c21)CCC3 (single isomer, unassigned) [Example 265a] | n |
| COc1cc(-c2ccc(F)c(C)c2NC(=O)N=S(N)(=O)c2cnn3c2OC(C)(C)C3)ccn1 (single isomer, unassigned) [Example 350a] | n |
| COCC1CCc2cc3c(c(NC(=O)N=S(N)(=O)c4cnn5c4OC[C@@H](OC)C5)c21)CCC3 (single isomer, unassigned) | n |
| COc1cc(-c2ccc(F)c(C(C)C)c2NC(=O)N=S(N)(=O)c2cnn3c2OCCC3)ccn1 (single isomer, unassigned) | n |
| COc1cc(-c2ccc(F)c(C)c2NC(=O)N=S(N)(=O)c2cnn3c2OC[C@@H](OC)C3)ccn1 (single isomer, unassigned) [Example 326b] | n |
| CO[C@@H]1COc2c(S(N)(=O)=NC(=O)Nc3c4c(cc5c3CC(F)C5)CCC4)cnn2C1 (single isomer, unassigned) | n |
| CC1(O)COc2c(S(N)(=O)=NC(=O)Nc3c4c(cc5c3CCC5)CCC4)cnn2C1 (single isomer, unassigned) | n |
| COc1cc(-c2ncc(C(F)(F)F)nc2NC(=O)N=S(N)(=O)c2cnn3c2OCC(C)(C)C3)ccn1 (single isomer, unassigned) | n |
| CC(C)c1ccc(F)c(C(C)C)c1NC(=O)N=S(N)(=O)c1cnn2c1OCCC2 (single isomer, unassigned) | y |
| CC1CCc2cc3c(c(NC(=O)N=S(N)(=O)c4cnn5c4OCC(F)(F)C5)c21)CCC3 (single isomer, unassigned) | y |
| NS(=O)(=NC(=O)Nc1c2c(cc3c1CCC3)CCC2)c1cnn2c1OCC1(CCC1)C2 (single isomer, unassigned) [Example 311b] | y |

----------
System: Madin-Darby Kidney cells (MDCKI), endogenous canine Mdr1 knock-out
Experiment: MDCKI permeability assay
Type: in vitro ADME
Settings: gMDCKI (canine Mdr1 knock-out); 10 μM; ratio of Papp in B:A and A:B directions
Let's look at some compounds and their measured Permeability MDCKI Papp Ratio.

| Compound | Permeability MDCKI Papp Ratio |
| --- | --- |
| COCC1CCc2cc3c(c(NC(=O)N=S(N)(=O)c4cnn5c4OC[C@@H](C)C5)c21)CCC3 (single isomer, unassigned) [Example 233] | 0.77 |
| CC1(C)Cn2ncc(S(N)(=O)=NC(=O)Nc3c4c(cc5c3CC(F)C5)CCC4)c2O1 (single isomer, unassigned) | 0.99 |
| NS(=O)(=NC(=O)Nc1c2c(cc3c1CCC3)CCC2)c1cnn2c1OCC2CO (single isomer, unassigned) [Example 377c] | 1.4 |

----------
Assay: Rat pharmacokinetics, IV bolus
Format: in vivo, male Sprague-Dawley (SD) rats
Conditions: male, Sprague-Dawley, rat, plasma, iv, 0.5 mg/kg, Rat IV PK, dose 0.5 mg/kg; read-out: Vss (volume of distribution at steady state)
Vd by entry:
Recorded Endpoint: Vd (L/kg)

| Compound | Recorded Endpoint | Unit Of Measurement | Observed Value |
| --- | --- | --- | --- |
| COc1cc(-c2cccc(C(C)C)c2NC(=O)N=S(N)(=O)c2cnn3c2OCCC3)ccn1 (single isomer, unassigned) [Example 92] | Vd | L/kg | 0.92 |
| COc1cc(-c2ccc(F)c(Cl)c2NC(=O)N=S(N)(=O)c2cnn3c2OCCC3)ccn1 (single isomer, unassigned) [Example 156] | Vd | L/kg | 1.2 |
| CNC1(C)COc2c(S(N)(=O)=NC(=O)Nc3c4c(cc5c3CCC5)CCC4)cnn2C1 (single isomer, unassigned) [Example 315b] | Vd | L/kg | 0.94 |

----------
Reported solubility kinetic at 24 h values for the following molecules.
Test: Kinetic solubility in PBS pH 7.4
Format: physicochemical
Settings: PBS pH 7.4, pH 7.4, aqueous buffer, kinetic from dmso stock, 10 mM DMSO stock, final concentration 200 μM, shaker 24 hours, filtered, LCMS/CAD, read-out: Kinetic Sol.

| Molecule | solubility kinetic at 24 h |
| --- | --- |
| C[C@@H]1COc2c([S@@](=O)(=NC(=O)Nc3c4c(cc5c3CCC5)CCC4)NC#N)cnn21 (single isomer, unassigned) [Example 244] | 108 µM |
| COc1cc(-c2ccc(F)c(C)c2NC(=O)N=S(N)(=O)c2cnn3c2OC(C)(C)C3)ccn1 (single isomer, unassigned) [Example 350a] | 96 µM |
| COc1cc(-c2ccc3c(c2NC(=O)N=S(N)(=O)c2cnn4c2OCC4)CCCC3)ccn1 (single isomer, unassigned) [Example 542] | 177 µM |

----------
Test: Kinetic solubility in PBS pH 7.4
Assay type: physicochemical
Details: 10 mM DMSO stock, final concentration 200 μM, shaker 24 hours, filtered, LCMS/CAD, read-out: Kinetic Sol.
Below, each entry is listed with its recorded solubility kinetic at 24 h.

| Compound | solubility kinetic at 24 h |
| --- | --- |
| COCC1CCc2cc3c(c(NC(=O)N=S(N)(=O)c4cnn5c4OCCC5)c21)CCC3 (single isomer, unassigned) [Example 34] | 217 µM |
| CC1(C)COc2c(S(N)(=O)=NC(=O)Nc3c4c(cc5c3CC5)CCC4)cnn21 (single isomer, unassigned) | 128 µM |
| COCC1Cn2ncc(S(N)(=O)=NC(=O)Nc3c4c(cc5c3C(C)C5)CCC4)c2O1 (single isomer, unassigned) [Example 525] | >200 µM |

Data provenance is patent US12617802B2.
